# target_of_assay: TNFa/TNFRI interaction (Homo sapiens)
# Sequence (P01375 77-233 limits assumed): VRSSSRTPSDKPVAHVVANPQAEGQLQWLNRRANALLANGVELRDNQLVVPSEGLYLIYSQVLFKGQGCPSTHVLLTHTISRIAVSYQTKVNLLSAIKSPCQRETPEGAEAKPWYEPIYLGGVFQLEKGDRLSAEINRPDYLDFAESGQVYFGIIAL
# experiment_description: TNFa/TNFRI interaction displacement test
# Type: binding
# assay_setup: compounds at 50 μM; human TNFRI 100 ng/ml
value_type: Displacement (%)

Prompt: Recorded Displacement (%) for O=S(=O)(c1ccccc1)n1cc(CN(CCCCNC2CCCC2)Cc2cccnc2F)c2ccccc21 with TNFa/TNFRI interaction (Homo sapiens), please?
Response: 199

Prompt: Form entry - test system: TNFa/TNFRI interaction (Homo sapiens); read-out: Displacement (%); compound: CN(CCOCCN(Cc1cccnc1F)Cc1cn(S(=O)(=O)c2ccccc2)c2ccccc12)C1CCCC1 [Compound 104]
Response: 123

Prompt: What Displacement (%) appears in the records for this compound with TNFa/TNFRI interaction (Homo sapiens)? Fc1ncccc1CN(Cc1cn(-c2cccc(C(F)(F)F)c2)c2ccccc12)CC1CCCN(C2CCCCC2)C1 (stereo not shown)
Response: 177

Prompt: Requested read-out Displacement (%), target or system TNFa/TNFRI interaction (Homo sapiens), entry CCCCN(CCCCN(Cc1cccnc1F)Cc1cn(S(=O)(=O)c2ccccc2)c2ccccc12)C1CCCCC1
Response: 219

Prompt: API: value(readout= Displacement (%), system= TNFa/TNFRI interaction (Homo sapiens), query= O=S(=O)(c1ccccc1)n1cc(CN(CCCCNC2CCCCC2)Cc2cn(S(=O)(=O)c3ccccc3)c3ccccc23)c2ccccc21 )
Response: 63

[A] CCCN(CCOCCN(Cc1cccnc1F)Cc1cn(S(=O)(=O)c2ccccc2)c2ccccc12)C1CCCCC1 [Compound 97]
[B] CN(CCCCN(Cc1cccnc1F)Cc1cn(S(=O)(=O)c2ccccc2)c2ncccc12)C1CCCCC1
Prompt: For the two items A and B , which reports the higher Displacement (%) value? Identify your pick by its label.
Response: A
(A: 153%, B: 101%)

###

# IC50 values compiled below
# target_of_assay: UniProt P35225
# Sequence (P35225 25-146, species assumed): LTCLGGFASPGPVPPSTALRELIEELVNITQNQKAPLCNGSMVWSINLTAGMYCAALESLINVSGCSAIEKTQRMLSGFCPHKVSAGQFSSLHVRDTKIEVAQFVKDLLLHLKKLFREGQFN

Example entries and their recorded answers appear below.
Prompt: Recall the recorded IC50 for CN(CCCCN(Cc1cccnc1F)Cc1cn(S(=O)(=O)c2ccccc2)c2ccccc12)C1CCC1 [Compound 70] with UniProt P35225 and state it.
Response: > 100 µM

Prompt: Query IC50 on UniProt P35225 for CN(C)CCCCCN(Cc1cccc(F)n1)Cc1cn(S(=O)(=O)c2ccccc2)c2ccccc12 [Compound 90]
Response: > 50 µM

Prompt: What reported IC50 corresponds to CCCN(CCCCN(Cc1cccnc1F)Cc1cn(S(=O)(=O)c2ccccc2)c2ccccc12)C1CCCC1 [Compound 98] on UniProt P35225?
Response: > 50 µM

Further cases:
Prompt: // fetch UniProt P35225 IC50 for CN(CCOCCN(Cc1cccnc1F)Cc1cn(S(=O)(=O)c2ccccc2)c2ccccc12)C1CCCCC1 [Compound 65]
Response: > 50 µM

Prompt: Short answer please: IC50, UniProt P35225, entry CN(CCCCCN(Cc1ccc(F)nc1)Cc1cn(S(=O)(=O)c2ccccc2)c2ccccc12)C1CCCCC1 [Compound 58]
Response: 10.4 µM

Prompt: # get_value(readout= IC50, system= UniProt P35225) for O=S(=O)(c1ccccc1)n1cc(CN(CCCCNC2CCCC2)Cc2cccnc2F)c2ccccc21 [Compound 71]
Response: > 50 µM

###

# target_of_assay: IL-4 (Homo sapiens)
# Sequence (P05112 25-153): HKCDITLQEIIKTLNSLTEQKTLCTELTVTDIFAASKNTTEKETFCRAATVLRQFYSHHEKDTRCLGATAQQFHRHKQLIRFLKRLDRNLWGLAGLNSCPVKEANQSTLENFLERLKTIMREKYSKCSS
# experiment_description: Immunoassay binding test, IL-4
# assay_setup: 100 μM
value_type: BINDING IL4 % Neutra at 100 μM (%)

Past entries and their recorded results:
Prompt: Sample CCCCN(CCCCN(Cc1cccnc1F)Cc1cn(S(=O)(=O)c2ccccc2)c2ccccc12)C1CCCCC1 [Compound 68] — what was its BINDING IL4 % Neutra at 100 μM?
Response: 86.0

Prompt: Need BINDING IL4 % Neutra at 100 μM, item O=S(=O)(c1ccccc1)n1cc(CN(CCCCNC2CCCC2)Cc2cccnc2F)c2ccccc21 [Compound 71]
Response: 92.4

Prompt: I have this compound here, CN(CCN(Cc1ccncc1)Cc1cn(-c2cccc(C(F)(F)F)c2)c2ccccc12)C1CCCCC1 [Compound 31] , and I need its recorded BINDING IL4 % Neutra at 100 μM.
Response: 96

Prompt: What value of BINDING IL4 % Neutra at 100 μM has been recorded for this entry: O=S(=O)(c1ccccc1)n1cc(CN(CCCCNC2CCCCC2)Cc2cccnc2)c2ccccc21 [Compound 15]
Response: 99

Prompt: # lookup: BINDING IL4 % Neutra at 100 μM of CCCCN(CCOCCN(Cc1cccnc1F)Cc1cn(S(=O)(=O)c2ccccc2)c2ccccc12)C1CCCCC1 [Compound 99]
Response: 87.4

[I] O=S(=O)(NCCCCN(Cc1cccnc1F)Cc1cn(S(=O)(=O)c2ccccc2)c2ccccc12)N1CCOCC1 [Compound 82]
[II] O=S(=O)(c1ccccc1)n1cc(CN(Cc2cccnc2)CC2CCCN(C3CCCCC3)C2)c2ccccc21 (stereo not shown) [Compound 3]
Prompt: Would you let me know which has the greater BINDING IL4 % Neutra at 100 μM value, I or II ? When you have decided, please share the label of that item.
Response: II
(II: 96.4%, I: 27.9%)
